# system-name: SARS-CoV-2 Main Protease (SARS-CoV-2)
# stated-conditions: 50.0 µM
# inhibition values compiled below
Number in %, nothing else.

Consider the worked cases shown below.
{"columns": ["compound", "inhibition [%]"],
 "data": [
  ["CN(C)C/C=C/C(=O)NCc1c[nH]c2ccccc12", 0.744],
  ["C=CC(=O)N1CCCN(Cc2ccccc2)CC1", 9.99],
  ["Cc1ncc2c(n1)CCC(NC(=O)NCc1cccc(N3C(=O)NC4(CCCC4)C3=O)c1)C2 (stereo unspecified)", -6.65],
  ["CC(C(=O)Nc1cnccc1C)=C1CC1", -8.02],
  ["Cc1ccnc(C)c1NC(=O)C(C)c1ccc(F)c(F)c1 (stereo unspecified)", -2.87],
  ["CC(C)(C)CC(=O)C(C#N)C(=O)Nc1ccccc1 (stereo unspecified)", 21.6]
]}

**Q:** Which inhibition is reported for this compound? Cc1nc(CCn2c(C3CCC(=O)N3)nnc2N2CCOC(C)(C)C2)n[nH]1 (stereo unspecified)
**A:** 2.23

**Q:** Which inhibition is reported for this compound? Cc1cc(C)c(C)c(S(=O)(=O)N2CCN(C(=O)c3cc[nH]c(=O)c3)CC2)c1C
**A:** 5.56

**Q:** Which inhibition is reported for this compound? O=C1NC(c2cccnc2)C(=O)N1c1cccc(Cl)c1 (stereo unspecified)
**A:** 33.9

**Q:** Which inhibition is reported for this compound? CO[C@@H](C)C(=O)Nc1cnccc1C (stereo in doubt)
**A:** 0.255

**Q:** Which inhibition is reported for this compound? O=C(Nc1cnn2ccc(N3CCC[C@@H]3c3cc(F)ccc3F)nc12)N1CC[C@H](O)C1 (stereo in doubt)
**A:** -4.24

----------
# system-name: UniProt P0DTD1
# stated-conditions: 20.0 µM
# inhibition values compiled below
Number in %, nothing else.

Consider the worked cases shown below.
{"columns": ["molecule", "inhibition [%]"],
 "data": [
  ["N#Cc1cccc(NC(=O)Nc2cccnc2)c1", 6.21],
  ["C=CC(=O)N(c1ccc(N2CCC2)cc1)C(C(=O)NC(C)(C)C)c1cccnc1 (stereo unspecified)", -18.5]
]}

**Q:** Which inhibition is reported for this molecule? C=CC(=O)N(c1ccc(C(C)(C)C)cc1)C(C(=O)NC1CCC1)c1cccnc1 (stereo unspecified)
**A:** 6.16

**Q:** Which inhibition is reported for this molecule? Cc1cnn(-c2ccncc2NC(=O)Cn2cc(C)c3ccccc32)c1
**A:** -8.61

**Q:** Which inhibition is reported for this molecule? CN1C(=O)/C(=N\NC(=O)c2ccc3c(c2)OCO3)c2ccccc21
**A:** -16.9

**Q:** Which inhibition is reported for this molecule? Cc1ccncc1NC(=O)Nc1cncc(C#N)c1
**A:** 3.67

**Q:** Which inhibition is reported for this molecule? C/C(O)=C(\C#N)C(=O)Nc1ccc(C(F)(F)F)cc1
**A:** -2.89

**Q:** Which inhibition is reported for this molecule? O=C1CC[C@H](C(=O)Nc2cccc(Br)c2)N1 (stereo in doubt)
**A:** 15

----------
# system-name: UniProt P0DTD1
# stated-conditions: 50.0 µM
measurement-type: inhibition (%)
Number in %, nothing else.

{"columns": ["compound", "u", "inhibition"],
 "data": [
  ["C=CC(=O)N(c1ccc(C(C)(C)C)cc1)C(C(=O)NCCc1cccc(F)c1)c1cccnc1 (stereo not given)", "%", 100],
  ["COc1cccc2c1OCC(NC(=O)c1cc(=O)[nH]c3cc(F)ccc13)C2 (stereo not given)", "%", 0]
]}

For the next question, use this compound.
**Q:** Which inhibition is reported for this compound? O=S(=O)(CCc1ccccc1)Nc1cccnc1
**A:** 17.2

----------
# inhibition values compiled below
# system-name: SARS-CoV-2 Main Protease (SARS-CoV-2) (UniProt P0DTD1)
# stated-conditions: 50.0 µM
Number in %, nothing else.

Consider the worked cases shown below.
{"columns": ["compound", "inhibition [%]"],
 "data": [
  ["C=CC(=O)N(c1ccc(C(C)(C)C)cc1)C(C(=O)NCCc1cccc(F)c1)c1cccnc1 (stereo not given)", 83.4],
  ["C=CC(=O)N(c1ccc(N(C)C)c(C)c1)C(C(=O)Nc1ccc(OC)cc1C)c1cccnc1 (stereo not given)", 7.01],
  ["COc1ccccc1OCCNC(=O)c1cc(=O)[nH]c2cccc(OC)c12", 90.9]
]}

**Q:** Which inhibition is reported for this compound? O=S1(=O)CCC(N2CCN(c3nc(-c4cccnc4)nc4ccccc34)CC2)C1 (stereo not given)
**A:** 14.1

**Q:** Which inhibition is reported for this compound? CCOc1ccccc1OC1CCN(C(=O)c2c(C)c(=O)[nH]c3ccccc23)C1 (stereo not given)
**A:** 4.57

**Q:** Which inhibition is reported for this compound? O=C(NCCc1cccc2ccccc12)c1cc(=O)[nH]c2ccccc12
**A:** 4.42

----------
# inhibition values compiled below
# system-name: SARS-CoV-2 Main Protease (SARS-CoV-2) (UniProt P0DTD1)
# stated-conditions: 50.0 µM
Number in %, nothing else.

{"columns": ["compound", "system-name", "assay-value"],
 "data": [
  ["CC1CN(Cc2cccc(Cl)c2)CCN1C(=O)CCl (stereo unspecified)", "SARS-CoV-2 Main Protease (SARS-CoV-2) (UniProt P0DTD1)", 100],
  ["Cc1cccc(NC(=O)C(C#N)C(=O)C2CCCC2)c1 (stereo unspecified)", "SARS-CoV-2 Main Protease (SARS-CoV-2) (UniProt P0DTD1)", 0],
  ["COc1ccccc1OCCN(C)C(=O)c1cc(=O)[nH]c2ccc(Cl)cc12", "SARS-CoV-2 Main Protease (SARS-CoV-2) (UniProt P0DTD1)", 0],
  ["O=C(c1cc(=O)[nH]c2ccc(Cl)cc12)N1CCN(S(=O)(=O)c2ccccc2)CC1", "SARS-CoV-2 Main Protease (SARS-CoV-2) (UniProt P0DTD1)", 22.8],
  ["C#Cc1ncccc1NC(=O)Cc1cccc(Cl)c1", "SARS-CoV-2 Main Protease (SARS-CoV-2) (UniProt P0DTD1)", 7.93]
]}

**Q:** Which inhibition is reported for this compound? Cc1ccncc1NC(=O)Cc1cccc(C#N)c1
**A:** 52.7

**Q:** Which inhibition is reported for this compound? C=CC(=O)N(c1ccc(C(C)(C)C)cc1)C(C(=O)NC(C)(C)C)c1cncc(Br)c1C (stereo unspecified)
**A:** 35.3

**Q:** Which inhibition is reported for this compound? O=C(Cc1ccccc1)Nc1cccc(OC2CC(=O)N2)c1 (stereo unspecified)
**A:** 0

**Q:** Which inhibition is reported for this compound? O=C(CCl)N1CCN(S(=O)(=O)c2ccc(Cc3cccc4ccccc34)cc2)CC1
**A:** 89

**Q:** Which inhibition is reported for this compound? O=C1C(=O)N(Cc2ccc(Br)cc2)c2c(Br)cccc21
**A:** 100

**Q:** Which inhibition is reported for this compound? O=C(CCl)N1CCN(Cc2cnc(Cc3ccccc3)s2)CC1
**A:** 97.6

----------
# system-name: SARS-CoV-2 Main Protease (SARS-CoV-2)
measurement-type: log10 IC50 (log10 of the value in µM)
Log10 applied to IC50; unit prior to transform: µM.

Consider the worked cases shown below.
{"columns": ["compound", "log10 IC50"],
 "data": [
  ["COc1ccc2nnn(CC(=O)N(Cc3ccccn3)c3ccc(C4CCNCC4)cc3)c2c1", 1.51],
  ["CCOC(=O)c1c(C)n(S(C)(=O)=O)c2ccc(N(C(=O)c3ccco3)S(C)(=O)=O)cc12", -0.83],
  ["O=C(CCl)N1CCN(Cc2cccc(Cl)c2)C[C@@H]1Cc1ccccc1 (stereo in doubt)", 1.28],
  ["COC(=O)c1ccc(-c2cc(Cl)cc(CC(=O)Nc3cnccc3C)c2)c(OC)c1", 1.08],
  ["Cc1ccncc1NC(=O)Cc1cc(Cl)cc(NCC(C)(C)C#N)c1", 1.52]
]}

**Q:** Which log10 IC50 is reported for this compound? CC(=O)Nc1ccc(C#N)cc1CN1CCN(C(=O)CCl)CC1
**A:** 1.24

**Q:** Which log10 IC50 is reported for this compound? CCCCN(CCCNC(=O)Nc1cn(CC(C)C)c(=O)c2ccccc12)c1ccccc1
**A:** 1.92

**Q:** Which log10 IC50 is reported for this compound? Cc1cc(C)c(C)c(S(=O)(=O)N2CCN(C(=O)c3cc(=O)[nH]c4ccccc34)CC2)c1C
**A:** 0.57

**Q:** Which log10 IC50 is reported for this compound? O=C(Cc1cccc(Cl)c1)Nc1cncc2c1CCCN2
**A:** 0.61

**Q:** Which log10 IC50 is reported for this compound? Cc1c(N)cncc1NC(=O)Cc1cccc(C#N)c1
**A:** 1.51

**Q:** Which log10 IC50 is reported for this compound? Nc1nn(C(=O)Cc2cccc(Cl)c2)c2cccc(F)c12
**A:** 1.72

**Q:** Which log10 IC50 is reported for this compound? O=C(CCl)N1CCN(S(=O)(=O)c2c(F)cccc2F)CC1
**A:** 0.42

**Q:** Which log10 IC50 is reported for this compound? O=C1CC(C(=O)Nc2cncc3ccccc23)c2cc(Br)ccc2N1 (stereo not given)
**A:** 0.05

**Q:** Which log10 IC50 is reported for this compound? O=C(Cc1cccc(Cl)c1)Nc1[nH]nc2cc(F)ccc12
**A:** 1.96

**Q:** Which log10 IC50 is reported for this compound? Nc1cccc(C2CN(C(=O)CCl)Cc3ccccc32)c1 (stereo not given)
**A:** 1.06

**Q:** Which log10 IC50 is reported for this compound? Cc1cc(C(F)(F)F)nc2n[nH]c(NC(=O)Cc3cccc(Cl)c3)c12
**A:** 1.91

**Q:** Which log10 IC50 is reported for this compound? O=C(CCc1cccc(Cl)c1)Nc1cncc2ccccc12
**A:** 1.29

**Q:** Which log10 IC50 is reported for this compound? O=C(Nc1cncc2ccccc12)C1(CCC2CC2)CCOc2ccc(Cl)cc21 (stereo not given)
**A:** 1.97

**Q:** Which log10 IC50 is reported for this compound? O=C(CCl)N1CCN(C(c2ccccc2)C2CCCCC2)CC1 (stereo not given)
**A:** -0.19

**Q:** Which log10 IC50 is reported for this compound? C=CC(=O)N(c1ccc(C(C)(C)C)cc1)C(C(=O)NC)c1cccnc1 (stereo not given)
**A:** 1.23

**Q:** Which log10 IC50 is reported for this compound? O=C1CC(Oc2cc(Cl)cc(N(CCC3CCCCC3)C(=O)Nc3cncc4ccccc34)c2)N1 (stereo not given)
**A:** 0.20

**Q:** Which log10 IC50 is reported for this compound? O=[N+]([O-])c1cnc(Sc2nnc(-c3ccc(Cl)cc3)o2)s1
**A:** -0.50

**Q:** Which log10 IC50 is reported for this compound? O=[N+]([O-])c1cnc(Sc2nccc(-c3cccnc3)n2)s1
**A:** 0.16

**Q:** Which log10 IC50 is reported for this compound? CC(C)Cn1cc(NC(=O)NCCc2ccc(Cl)cc2)c2ccccc2c1=O
**A:** 1.98

**Q:** Which log10 IC50 is reported for this compound? COC(=O)c1cc(Br)cc2c1NC(=O)C2=O
**A:** 1.63

**Q:** Which log10 IC50 is reported for this compound? CCc1cc(F)ccc1-c1cc(Cl)cc(CC(=O)Nc2cnccc2C)c1
**A:** 1.41
